- system under test: T1, human CD4 on cells (SKW3 cells; human PBMCs) (human, UniProt P01730 26-458)
- T1 construct: whole, on cells; SKW3 CD4 knockout cells served as the negative cell line; also called hCD4
- assay comment: FACS confirmation, supernatant on human PBMCs, anti-mouse Fc 647, CD4+ percent of viable cells
property name: PBMCs, anti-mFc 647 CD4+ Percent Bound of Viable (%)
Write it as a number; the unit % goes unstated.

Q) Look up PBMCs, anti-mFc 647 CD4+ Percent Bound of Viable for this binder: 75110_04P06A (antibody, IgG1, V domains shown, Tested as non-clonal AlivaMab Mouse Kappa hybridoma supernatant: human variable domains and human kappa, mouse Fc) VH: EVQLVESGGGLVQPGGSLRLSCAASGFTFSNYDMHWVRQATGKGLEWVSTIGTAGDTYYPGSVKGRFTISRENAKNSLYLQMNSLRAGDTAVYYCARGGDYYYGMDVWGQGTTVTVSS VL: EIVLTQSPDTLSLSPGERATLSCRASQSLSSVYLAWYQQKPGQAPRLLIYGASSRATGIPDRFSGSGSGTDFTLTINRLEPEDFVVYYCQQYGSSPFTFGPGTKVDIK
A) 31

Q) Another: 75110_01G11A (antibody, IgG1, V domains shown, Tested as non-clonal AlivaMab Mouse Kappa hybridoma supernatant: human variable domains and human kappa, mouse Fc) VH: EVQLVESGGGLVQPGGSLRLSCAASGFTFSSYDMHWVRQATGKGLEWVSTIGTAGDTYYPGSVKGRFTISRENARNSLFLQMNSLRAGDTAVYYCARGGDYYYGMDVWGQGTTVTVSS VL: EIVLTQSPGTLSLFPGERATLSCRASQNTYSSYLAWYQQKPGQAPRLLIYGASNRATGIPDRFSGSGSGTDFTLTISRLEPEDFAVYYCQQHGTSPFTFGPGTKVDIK
A) 30

Q) Another: 75110_01D24A (antibody, V domains shown, Tested as non-clonal AlivaMab Mouse Kappa hybridoma supernatant: human variable domains and human kappa, mouse Fc) VH: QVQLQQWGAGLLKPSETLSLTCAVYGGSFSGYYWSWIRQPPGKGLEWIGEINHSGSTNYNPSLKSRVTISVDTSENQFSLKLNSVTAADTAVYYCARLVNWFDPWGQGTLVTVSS VL: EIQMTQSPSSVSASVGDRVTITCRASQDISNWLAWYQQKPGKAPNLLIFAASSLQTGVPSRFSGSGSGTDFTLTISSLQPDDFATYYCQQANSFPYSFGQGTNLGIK
A) 31

Q) Another: 75110_13P21A (antibody, IgG1, V domains shown, Tested as non-clonal AlivaMab Mouse Kappa hybridoma supernatant: human variable domains and human kappa, mouse Fc) VH: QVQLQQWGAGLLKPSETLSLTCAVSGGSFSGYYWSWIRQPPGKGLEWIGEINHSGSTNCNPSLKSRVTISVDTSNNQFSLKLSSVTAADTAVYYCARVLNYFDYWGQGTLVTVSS VL: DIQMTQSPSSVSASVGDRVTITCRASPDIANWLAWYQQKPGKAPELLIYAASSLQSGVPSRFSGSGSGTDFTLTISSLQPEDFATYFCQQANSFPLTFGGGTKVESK
A) 31

Q) Another: 75110_12C19A (antibody, IgG1, V domains shown, Tested as non-clonal AlivaMab Mouse Kappa hybridoma supernatant: human variable domains and human kappa, mouse Fc) VH: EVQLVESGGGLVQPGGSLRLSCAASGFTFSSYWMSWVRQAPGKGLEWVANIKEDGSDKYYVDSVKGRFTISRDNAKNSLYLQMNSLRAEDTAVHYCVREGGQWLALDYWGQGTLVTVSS VL: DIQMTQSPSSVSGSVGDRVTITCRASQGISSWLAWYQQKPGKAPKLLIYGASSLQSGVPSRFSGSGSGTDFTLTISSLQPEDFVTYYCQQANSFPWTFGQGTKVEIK
A) 31
